Test: PAMPA (parallel artificial membrane permeability assay)
Type: in vitro ADME
Conditions: membrane permeation rate (Pe); 50 mM MOPSO buffer pH 6.5 with 5.0% glycocholic acid, 37° C., 18 hours
Positions of bridges follow the written chain, without caps; N, C: chain ends. Non-standard residues stand in square brackets, D forms with d. Residues, ends and D or L forms follow the SMILES beside them. *: point of attachment. NMeF = CN[C@@H](Cc1ccccc1)C(=O)O; NMeI = CC[C@H](C)[C@H](NC)C(=O)O; NMeL = CN[C@@H](CC(C)C)C(=O)O; NMeA = CN[C@@H](C)C(=O)O; Piperidide = C1CCN(*)CC1
Property: iPAMPA Pe; scope: individual molecules
Reply: number alone, nothing else.

molecule: CC[C@H](C)[C@H]1C(=O)NCC(=O)N(C)[C@@H](CC(C)C)C(=O)N[C@@H]([C@@H](C)O)C(=O)N2CCC[C@H]2C(=O)N[C@@H](Cc2ccccc2)C(=O)N[C@H](C(=O)N2CCCCC2)CC(=O)N(C)[C@@H](C)C(=O)N[C@@H](Cc2ccccc2)C(=O)N(C)[C@@H](CC(C)C)C(=O)N[C@@H](CC(C)C)C(=O)N1C [DP-236] ([NMeA]F[NMeL]L[NMeI]G[NMeL]TPFD-Piperidide; lactam N-11)
iPAMPA Pe: 7.0E−05

Let us examine a further case.
## Input State its iPAMPA Pe: CC[C@H](C)[C@H](NC(=O)[C@H](Cc1ccccc1)NC(=O)[C@@H](NC(=O)[C@@H]1CC(=O)N[C@H](C)C(=O)N(C)[C@@H](CC(C)C)C(=O)N[C@@H]([C@@H](C)O)C(=O)N(C)[C@@H](CC(C)C)C(=O)N(C)[C@@H](Cc2ccccc2)C(=O)N(C)[C@@H](CC(C)C)C(=O)N1)C(C)C)C(=O)N[C@H](C(=O)N1CCCCC1)[C@@H](C)CC [DP-917] ([dA][NMeL]T[NMeL][NMeF][NMeL]DVFII-Piperidide; lactam N-7)
## Output 1.0E−07

* * *

Measured half-life at 2 uM by item
Experiment: Serum stability test in mouse serum
Type: in vitro ADME
Settings: both sexes, pH 7.4, two hours, read-out: Serum stability t1/2 (Mouse)
Positions of bridges follow the written chain, without caps; N, C: chain ends. Non-standard residues stand in square brackets, D forms with d. Residues, ends and D or L forms follow the SMILES beside them. ξ: configuration not given here. *: point of attachment. NMeF = CN[C@@H](Cc1ccccc1)C(=O)O; NMeI = CC[C@H](C)[C@H](NC)C(=O)O; NMeL = CN[C@@H](CC(C)C)C(=O)O; NMeA = CN[C@@H](C)C(=O)O; Piperidide = C1CCN(*)CC1; ξC = NC(CS)C(=O)O; Sar = CNCC(=O)O; tBu = CC(C)(C)*

compound: CC(C)C[C@H]1C(=O)N[C@H](C(=O)N2CCCCC2)CSCC(=O)N(C)[C@@H](Cc2ccccc2)C(=O)N(C)[C@@H](C)C(=O)N[C@@H](Cc2ccccc2)C(=O)N(C)[C@@H](CC(C)C)C(=O)N[C@@H]([C@@H](C)O)C(=O)N(C)CC(=O)N1C [Compound P-105] ({CH2CO}-[NMeF][NMeA]F[NMeL]T[Sar][NMeL]C-Piperidide; thioether N-8)
half-life at 2 uM: > 2.5 days

compound: CC[C@H](C)[C@H]1C(=O)NC(C(=O)N2CCCCC2)CSCC(=O)N(C)[C@@H](Cc2ccccc2)C(=O)N(C)[C@@H](C)C(=O)N(C)[C@@H](Cc2ccccc2)C(=O)N(C)[C@@H](CC(C)C)C(=O)N[C@@H]([C@@H](C)O)C(=O)N(C)CC(=O)N(C)[C@@H](CC(C)C)C(=O)N[C@@H](COC(C)(C)C)C(=O)N1C (stereo partly drawn) [Compound P-112] ({CH2CO}-[NMeF][NMeA][NMeF][NMeL]T[Sar][NMeL]S(tBu)[NMeI][ξC]-Piperidide; thioether N-10)
half-life at 2 uM: > 2.5 days

Then this compound:
## Input Please give the documented half-life at 2 uM of CC(C)C[C@H]1C(=O)N[C@@H](COC(C)(C)C)C(=O)N[C@H](C(=O)N2CCCCC2)CSCC(=O)N(C)[C@@H](C)C(=O)N[C@@H](Cc2ccccc2)C(=O)N(C)[C@@H](CC(C)C)C(=O)N[C@@H]([C@@H](C)O)C(=O)N(C)CC(=O)N1C [Compound P-106] ({CH2CO}-[NMeA]F[NMeL]T[Sar][NMeL]S(tBu)C-Piperidide; thioether N-8)
## Output > 2.5 days
